The reported measurements were obtained from paper PMC11496081.

- Tested on: calcium-permeable AMPA receptors (CP-AMPARs)
- procedure_details: Whole-cell patch clamp, block of kainate-induced currents in striatal giant interneurons
- Type: cell-based, rat
- test_context: read-out: IC50, µM CP-AMPARs; kainate-induced current, −80 mV
- Procedure: The rats were anesthetised with sevoflurane and then decapitated. […] All experiments were performed at room temperature. Pentamidine isethionate (P-155) was from Alomone laboratories. The voltage dependence of compounds action was analysed by Woodhull model for permeable blockers ([Woodhull, 1973]; [Tikhonova et al., 2008]). […]
test_readout: IC50 (µM)
Write the number in µM without appending the unit.

Form field, IC50 with calcium-permeable AMPA receptors (CP-AMPARs), item N=C(N)c1ccc(-c2ccc(-c3ccc(C(=N)N)cc3)o2)cc1 : 38
